Entries and their normalized growth
- experimentalProtocol: chemical genetic growth profiling, strain panel (AID 1159580);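 further: tested at 20 µM; growth read once vehicle control cultures reached saturation at 30 °C; 1 = growth at the plate median or of vehicle wells; lower values mean less growth of the strain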
- assayConditions: S. cerevisiae deletion strains, growth OD, locus YPL204W, strain HRR25, stronger effect = lower value
In all, about 5,500 compounds went through this assay and about 2,000 (36%) were called active. Roughly 18% stayed inconclusive and do not appear here. The list shows a part of the results.

molecule	normalized growth
Cc1cc(C(=O)Nc2ccc(Cl)cc2)nn1C(C)(C)C	0.962
CS(=NC(=O)c1cccc(Cl)c1)c1ccc(OC(=O)c2ccc(Cl)cc2)cc1 (centres undefined)	0.952
O=C(NNc1ccccc1F)c1ccno1	0.937
Cc1cc(NNC(=O)c2ccccc2Cl)nc2c1c(C)nn2C	0.945
CC(=O)CSc1nnc(-c2ccc(C(C)(C)C)cc2)n1-c1ccc(Cl)cc1	0.958
COc1cc2c(cc1OC)C(C)N(C(=O)c1sc3ccccc3c1Cl)CC2 (centres undefined)	0.905
O=C(CSc1nnnn1-c1ccccc1)c1ccccc1	0.524
N#CC(C#N)=C(SCc1c(Cl)cccc1Cl)SCc1c(Cl)cccc1Cl	1
CSC1=NNC(c2nn(C)cc2Cl)S1 (centres undefined)	0.16
Cc1ccc2nc(-c3ccc(Cl)cc3)cn2c1	0.9
COc1cc(NC(=S)NNS(=O)(=O)c2ccc(C)cc2)c(OC)cc1Cl	0.92
Cc1ccc(-c2csc(-c3cccnc3)n2)c(C)c1	0.796
Nc1ccccc1SCc1c(Cl)cccc1Cl	0.857
O=C(Oc1ccc(C(F)(F)F)cc1[N+](=O)[O-])c1cccc(Cl)c1	0.449
Cc1nnsc1C(=O)NNc1ccc(F)cc1F	0.917
O=C1C(=O)N(CN2CCc3c([nH]c4ccccc34)C2C(F)(F)F)c2ccc(F)cc21 (centres undefined)	0.798
CCOC(=O)CSC(=S)NCc1ccc(C)cc1	0.943
Cc1cc(C(=O)NNc2ccc(F)cc2F)no1	0.925
COc1ccc(NNC(=O)c2sc3ccccc3c2Cl)cc1	0.576
S=C(Nc1ccc(Cl)cc1Cl)N(c1cccc(Cl)c1)c1nc2ccccc2s1	0.719
Cc1cc(Cl)ccc1NNC(=O)c1ccno1	0.904
O=S(=O)(Nc1cccc2nsnc12)c1cc(Cl)sc1Cl	0.999
Cc1cc(Cl)ccc1NNC(=O)c1snnc1C	0.874
CC(C)(C)CN/C(C#N)=C(/C#N)NCc1cccc(Cl)c1	0.967
O=S(=O)(Nc1cccc(CCc2ccccn2)c1)c1cc(Cl)c(Cl)cc1Cl	0.991
COc1cc(NC(=S)NC(=O)c2ccccc2)c(OC)cc1Cl	0.986
O=c1c(Sc2ccc(Cl)cc2)c(Sc2ccc(Cl)cc2)c1=O	0.109
Cc1c(Cc2ccc(F)cc2)c(=O)oc2cc(O)ccc12	0.98
Cc1ccc(/C=C2\CSc3ccc(F)cc3C2=O)cc1	0.876

----------
- experimentalProtocol: chemical genetic growth profiling, strain panel (AID 1159580);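 further: tested at 20 µM; growth read once vehicle control cultures reached saturation at 30 °C; 1 = growth at the plate median or of vehicle wells; lower values mean less growth of the strain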
- assayConditions: S. cerevisiae deletion strains, growth OD, locus YIL125W, strain kgd1, stronger effect = lower value
Among all 5,500 compounds or so, about 2,000 (36%) were called active. Inconclusive results (about 18%) are left out. The list shows a part of the results.
# key: entry, value: normalized growth
valueType: normalized growth

molecule	observedValue
O=C(O)c1cc2ccccc2[nH]1	0.995
C=C1C([C@]2(C)C(CC(=O)OC)[C@@](C)(COC(C)=O)OC(=O)C[C@@H]2OC(C)=O)[C@@H](OC=O)[C@H](OC(=O)C(O)C(C)CC)[C@@]2(C)[C@H](c3ccoc3)CC(=O)C12O (some centres undefined)	1
CCCCCCCCCCCCCCCC[N+](C)(C)C	0.0641
CCC(C)C(OC(C)=O)C(=O)OC1C(O)C2C3(C)C=CC(=O)C(C)(C)C3CC(OC(=O)C(O)C(C)C)C2(C)C23OC2CC(c2ccoc2)C13C (centres undefined)	0.986
CC1CC2C3CCC4=CC(=O)C=C[C@]4(C)[C@@]3(F)[C@@H](O)C[C@]2(C)[C@@]1(O)C(=O)CO (some centres undefined)	0.963
C[C@]12CC(=O)C3C(CC[C@@H]4C[C@H](O)CC[C@]34C)C1CC[C@]2(O)C(=O)CO (some centres undefined)	0.997
Cc1cc(O)c(C)c(O)c1C(=O)O	1
C[N+](C)(C)CCCCCC[N+](C)(C)C	1
CCOC(=O)c1c(C)cc(O)c(C=O)c1O	0.471
CC[C@H]1OC(=O)[C@H](C)[C@@H](O[C@H]2C[C@@](C)(OC)[C@@H](O)[C@H](C)O2)[C@H](C)[C@@H](O[C@@H]2O[C@H](C)C[C@H](N(C)C)[C@H]2O)[C@](C)(O)C[C@@H](C)CN(C)[C@H](C)[C@@H](O)[C@]1(C)O	0.983
C[C@@H]1[C@H]2[C@H](O[C@@H]3O[C@H](CO)[C@@H](O)[C@H](O)[C@H]3O)OC=C(C(=O)O)[C@H]2C[C@@H]1O	0.978
Cc1c(O)c(C(=O)CC(C)C)c2oc3c(C(=O)CC(C)C)c(O)c(C)c(O)c3c2c1O	0.995
CCC(=O)O[C@H]1[C@H](O[C@@H]2[C@@H](C)[C@H](O[C@H]3C[C@@](C)(OC)[C@@H](O)[C@H](C)O3)[C@@H](C)C(=O)O[C@H](CC)[C@@](C)(O)[C@H](O)[C@@H](C)C(=O)[C@H](C)C[C@@]2(C)O)O[C@H](C)C[C@@H]1N(C)C	1.02
CCOC(=O)CCC(=O)O[C@H]1[C@H](O[C@@H]2[C@@H](C)[C@H](O[C@H]3C[C@@](C)(OC)[C@@H](O)[C@H](C)O3)[C@@H](C)C(=O)O[C@H](CC)[C@@](C)(O)[C@H](O)[C@@H](C)C(=O)[C@H](C)C[C@@]2(C)O)O[C@H](C)C[C@@H]1N(C)C	0.985
